Values were extracted from the supplement of paper PMC13380429.

- System: Vero E6 infected with SARS-CoV-2
- experimentalDetails: inhibition of SARS-CoV-2 cytopathic effect; higher = more antiviral protection, active = above 15
- measurementContext: 10000 nM; 48 h
Recorded inhibition of SARS-CoV-2 cytopathic effect, one value per entry.
Numbers only here, please. The scale is %.

The cases that follow already have their inhibition of SARS-CoV-2 cytopathic effect on record.
compound: Cc1csc(NC(=O)CSc2ccc(-c3ccccc3)nn2)n1
readoutUnit: %
measurement: 12.2
//
compound: Nc1nc(-c2nn(Cc3ccccc3F)c3ncccc23)ncc1C1CC1
readoutUnit: %
measurement: -5.17
//
compound: CC(=O)N1CCC(C(=O)N(CCCN2CCC(Cc3ccc(C(N)=O)cc3)CC2)c2ccc(C)c(Cl)c2)CC1
readoutUnit: %
measurement: 2.52

inhibition of SARS-CoV-2 cytopathic effect measured on O=C(O)CCc1ccc(NCc2cccc3c2CCCN3CCOc2ccccc2)cc1F = 0.9

Kindly note the recorded inhibition of SARS-CoV-2 cytopathic effect for CS(=O)(=O)c1cc(F)cc2c3c(n(Cc4ccc(Cl)cc4)c12)[C@@H](CC(=O)O)CC3 , which is 2.04

# compound CC(C)(C(=O)NCC(F)(F)C(F)(F)F)C(=O)N[C@@H]1C(=O)Nc2ccccc2-c2ccccc21 ; its inhibition of SARS-CoV-2 cytopathic effect = -3.87

Measured inhibition of SARS-CoV-2 cytopathic effect of CCCCN(Cc1ccc(C(=O)NO)cc1)C(=O)Nc1ccccc1 : -13.9

Memo: NCC(=O)N[C@@H](CCC(N)=O)C(=O)O , reported inhibition of SARS-CoV-2 cytopathic effect: -2.42

Consider CCCCc1cc2ccccc2c(OCCN(C)C)n1 . Its measured inhibition of SARS-CoV-2 cytopathic effect is -2.53

// inhibition of SARS-CoV-2 cytopathic effect lookup, compound = Nc1ncnc2[nH]nc(Nc3ccc(F)cc3)c12 , result: -5.26

Briefly, inhibition of SARS-CoV-2 cytopathic effect measured for COCCc1ccc(OCC(O)CNC(C)C)cc1 (stereo not drawn) : 1.25
